# Tested on: Huh-7 cells, genotype 1b HCV replicon
# assay_method_text: Inhibition of HCV replication in cell culture, genotype 1b replicon
# Format: cell-based, hepatitis C virus
# conditions_used: Hepatitis C virus, Huh-7, 24 h, Huh-7, genotype 1b replicon; intracellular HCV RNA 24 h after 3 daily doses; read-out: EC50
pEC50: −log10 of the molar value.
recorded_endpoint: pEC50

| molecule | experimental_target | assay_result |
| --- | --- | --- |
| Cc1ccc(NC(=O)[C@H](CCCCN)NC(=O)Nc2ccc(OCc3ccccc3)cc2)cc1 | Huh-7 cells, genotype 1b HCV replicon | > 6.30 |
| Cc1ccc(NC(=O)C[C@H](CCCCN)NC(=O)Nc2ccc(OCc3ccccc3)cc2)cc1 | Huh-7 cells, genotype 1b HCV replicon | < 5.70 |
| NCCCC[C@H](NC(=O)Nc1ccc(OCc2ccccc2)cc1)C(=O)Nc1ccc(C2CCCCC2)cc1 | Huh-7 cells, genotype 1b HCV replicon | < 5.70 |
| Cc1ccc(NC(=O)C(Cc2ccc(CN)cc2)NC(=O)Nc2ccc(OCc3ccccc3)cc2)cc1 (stereo not shown) | Huh-7 cells, genotype 1b HCV replicon | > 6.30 |
| Cc1ccc(NC(=O)C(CCCCN)NC(=O)Nc2nnc(COc3ccc(C)cc3)s2)cc1 (stereo not shown) | Huh-7 cells, genotype 1b HCV replicon | 5.70 to 6.30 |
| Cc1cc2cc(NC(=O)[C@H](CCNC(=O)CN)NC(=O)OCC3c4ccccc4-c4ccccc43)ccc2[nH]1 | Huh-7 cells, genotype 1b HCV replicon | < 5.70 |
| Cc1ccc(NC(=O)[C@H](CCCCN)NC(=O)CNc2ccc(Oc3ccccc3)cc2)cc1 | Huh-7 cells, genotype 1b HCV replicon | 5.70 to 6.30 |
| Cc1ccc(NC(=O)C(CCCCN)NC(=O)Nc2ccc(-c3nc4ccc(C)cc4s3)cc2)cc1 (stereo not shown) | Huh-7 cells, genotype 1b HCV replicon | < 5.70 |
| Cc1cc2cc(NC(=O)[C@H](CCNC(=O)CN)NC(=O)Nc3ccc4c(c3)Cc3ccccc3-4)ccc2[nH]1 | Huh-7 cells, genotype 1b HCV replicon | < 5.70 |
| Cc1ccc(NC(=O)C(Cc2ccc(CN)cc2)NC(=O)Nc2ccc(-c3ccccc3)cc2)cc1 (stereo not shown) | Huh-7 cells, genotype 1b HCV replicon | < 5.70 |

Attribution: patent US20070021434A1
